Data credit: patent US20240246968A1

test system: MIA PaCa-2 cells; experiment: Growth inhibition activity on KRAS-G12C mutant cell line (MIA PaCa-2), CellTiter-Glo 3D; format: cell-based, human; conditions: Homo sapiens, MIA PaCa-2, 72 h, MIA PaCa-2, 3-day culture with compound
Please respond with reported pIC50 for every item in the list.
# pIC50: negative log10 of molar concentration; output just the value

QUERY: Annotate the compound `CO[C@H]1CC[C@H](NC/C=C/C(=O)Nc2c(F)cc(C(=O)c3ccc4c(-c5cc6[nH]c(=O)n(C)c6cc5C(F)(F)F)cccn34)cc2F)CC1` with its measured pIC50.
RESULT: 6.74

QUERY: Annotate the compound `CO[C@H]1CC[C@H](NC/C=C/C(=O)Nc2c(F)cc(C(=O)c3cc(-c4cnn(C)c4)c4c(-c5c(C)cc6c(nc(C)n6C)c5Cl)cccn34)cc2F)CC1` with its measured pIC50.
RESULT: 7.03

QUERY: Annotate the compound Cc1nc2cc(-c3cccn4c(C(=O)c5cc(F)c(NC(=O)/C=C/CNC6CCOC(C)(C)C6)c(F)c5)ccc34)c(C(F)(F)F)cc2n1C (stereo not shown) with its measured pIC50.
RESULT: 7.01

QUERY: Annotate the compound `COc1cc2c(cc1-c1cccn3c(C(=O)c4cc(F)c(NC(=O)/C=C/CN[C@H]5CC[C@H](OC)CC5)c(F)c4)ccc13)ncn2C` with its measured pIC50.
RESULT: 7.04

* * *

tested on: MIA PaCa-2 cells; test: Growth inhibition activity on KRAS-G12C mutant cell line (MIA PaCa-2), CellTiter-Glo 3D; assay type: cell-based, human; conditions: Homo sapiens, MIA PaCa-2, 72 h, MIA PaCa-2, 3-day culture with compound
readout-kind: pIC50
# pIC50: negative log10 of molar concentration; output just the value

QUERY: Annotate the compound CO[C@H]1CC[C@H](NC/C=C/C(=O)Nc2c(F)cc(C(=O)c3ccc4c(-c5c(C)cc6c(nc(COC(=O)/C=C/CN[C@H]7CC[C@H](OC)CC7)n6C)c5Cl)cccn34)cc2F)CC1 [Example 59] with its measured pIC50.
RESULT: 6.64

QUERY: Annotate the compound COCc1cc(C(=O)c2cc(F)c(NC(=O)/C=C/CN[C@H]3CC[C@H](OC)CC3)c(F)c2)n2cccc(-c3c(C)cc4c(nc(C)n4C)c3Cl)c12 [Example 103] with its measured pIC50.
RESULT: 7.13

QUERY: Annotate the compound COc1cc2c(ncn2C)c(Cl)c1-c1cccn2c(C(=O)c3cc(F)c(NC(=O)/C=C/CNC(C)(C)C)c(F)c3)ccc12 (single isomer, unassigned) [Example 14-1] with its measured pIC50.
RESULT: 7.55

QUERY: Annotate the compound Cc1nc2cc(-c3cccn4c(C(=O)c5cc(F)c(NC(=O)/C=C/CNC6(CO)CCOCC6)c(F)c5)ccc34)c(C(F)(F)F)cc2n1C [Example 70] with its measured pIC50.
RESULT: 6.68

QUERY: Annotate the compound C#Cc1cc(C(=O)c2cc(F)c(NC(=O)/C=C/CN[C@H]3CC[C@H](OC)CC3)c(F)c2)n2cccc(-c3c(C)cc4c(nc(C)n4C)c3Cl)c12 [Example 100] with its measured pIC50.
RESULT: 7.02

QUERY: Annotate the compound Cc1nc2cc(-c3cccn4c(C(=O)c5cc(F)c(NC(=O)/C=C/CNC6CCOC6)c(F)c5)ccc34)c(C(F)(F)F)cc2n1C (centres unmarked) [Example 77] with its measured pIC50.
RESULT: 7.15

QUERY: Annotate the compound CO[C@H]1CC[C@H](NC/C=C/C(=O)Nc2c(F)cc(C(=O)c3cc(I)c4c(-c5c(C)cc6c(nc(C)n6C)c5Cl)cccn34)cc2F)CC1 [Example 75] with its measured pIC50.
RESULT: 6.64

QUERY: Annotate the compound CC(C)(C)NC/C=C/C(=O)Nc1c(F)cc(C(=O)c2cnc3c(-c4cc5nc6n(c5cc4C(F)(F)F)CCC6)cccn23)cc1F [Example 7] with its measured pIC50.
RESULT: 6.80

QUERY: Annotate the compound Cc1nc2cc(-c3cccn4c(C(=O)c5cc(F)c(NC(=O)/C=C/CN[C@H]6CC[C@H](F)CC6)c(F)c5)ccc34)c(C(F)(F)F)cc2n1C [Example 80] with its measured pIC50.
RESULT: 7.07

QUERY: Annotate the compound Cc1nc2cc(-c3cccn4c(C(=O)c5cc(F)c(NC(=O)/C=C/CN[C@H]6CCOC6)c(F)c5)ccc34)c(C(F)(F)F)cc2n1C [Example 92] with its measured pIC50.
RESULT: 6.92

QUERY: Annotate the compound CCc1nc2c(-c3cc4nc(C)n(C)c4cc3C(F)(F)F)cccn2c1C(=O)c1cc(F)c(NC(=O)/C=C/CN[C@H]2CC[C@H](OC)CC2)c(F)c1 [Example 99] with its measured pIC50.
RESULT: 6.77
